Assay Summary: Lung PK after intratracheal administration to Sprague-Dawley rats (PreciseInhale system)
Type: in vivo
Settings: rat, inhaled or intranasal, male Sprague-Dawley rats, 10 μg/lung deposited dose, mean residence time to last measurable concentration, read-out: Lung MRTlast

Compound	MRT last
CS(=O)(=O)Nc1ccc(C(=O)O[C@@H](Cc2c(Cl)c[n+]([O-])cc2Cl)c2ccc(OC(F)F)c(OCC3CC3)c2)cc1OCC1CC1 (single isomer, unassigned) [Crystal Form 2]	9.4 h

* * *

Assay Summary: Solubility in Simulated Lung Fluid (SLF), saturation shake-flask method
Format: physicochemical
Settings: simulated lung fluid (SLF), aqueous with cosolvent or surfactant or cyclodextrin, thermodynamic from solid; SLF with 0.02% v/v Tween 80, pH 6.5, 37° C., time 0.5 h
Measured Quantity: solubility at 0.5 h (µg/mL)

Compound	Quantitative Result
CS(=O)(=O)Nc1ccc(C(=O)O[C@@H](Cc2c(Cl)c[n+]([O-])cc2Cl)c2ccc(OC(F)F)c(OCC3CC3)c2)cc1OCC1CC1 [Crystal Form A, reference compound]	0.16
CS(=O)(=O)Nc1ccc(C(=O)O[C@@H](Cc2c(Cl)c[n+]([O-])cc2Cl)c2ccc(OC(F)F)c(OCC3CC3)c2)cc1OCC1CC1 (single isomer, unassigned) [Crystal Form 2]	0.74
